The reported numbers originate from the nanobody polyreactivity screen of Harvey et al. (2022).

- Assay Info: yeast display, Sf9 membrane polyspecificity reagent, FACS + sequencing; frameworks hold sequencing errors

- Sequence: "QVQLVESGGGLVQAGGSLRLSCAASGYIFDRYAMGWYRQAPGKERELVAAISGRGGSTYYADSVKGRFTISRDNAKNTVYLQKNSLKPEDTAFYYCARDVYVRNGQRARYDSWGQGTQVTVSS"
  polyreactivity (PSR sort gate): "high polyreactivity"
- Sequence: "QVQLVESGGGLVQAGGSLRLSCAASGRTFSYYAMGWYRQAPGKERELVAAISRSGVTTHYADSVKGRFTISRDNAKNTVYLQMNSLKTEDTAVYYCNKVYYYVGTLDYWGQGTQVTVSS"
  polyreactivity (PSR sort gate): "high polyreactivity"
- Sequence: "QVQLVESGGGLVQAGGSLRLSCAASGSTFYRYAMGWYRQAPGKERELVAAISTSGGRTYYADSVKGRFTISRDNAKNTVYLQMNSLKPEDTAVYYCAAPYQYGYWGQGTQVTVSS"
  polyreactivity (PSR sort gate): "high polyreactivity"
- Sequence: "QVQLVESGRGLFQAGRSLRISCAASGSIFSYNTMGWYREAPGKERELVASISSGGRTYYADSVKGRFTISRDNAKNTVYLQMNSLKPVDTAVYDCARVPYAYLPYKPFQQYSYDYWGQGTQVTVSS"
  polyreactivity (PSR sort gate): "high polyreactivity"
- Sequence: "QVQLVESGGGLVQAGGSLRLSCAASGLTFGYYAMGWYRQAPGKERELVAVISGGGGTHYADSVKGRFTISRDNAKNTVYLQMNSLKPEDTAVYYCAARYRAQQIARYYYWGQGTQVTVSS"
  polyreactivity (PSR sort gate): "high polyreactivity"
- Sequence: "QVQLVESGGGLGQAGGSLRLSCAASGFTFGNYAMGWYRQAPGKERELVAVISYSTGSTNYADSVKGRFTISRDNAKNTVYLQMNSLKPEDTAVYYCAKRYRSYYQGYGYWGQGTQVTVSS"
  polyreactivity (PSR sort gate): "high polyreactivity"
- Sequence: "QVQLVESGGGLVQAGGSLRLSCAASGRTLSANAMGWYRQAPGKERELVATISTRGGRTYYADSVKGRFTISRDNAKNTVYLQMNSLKPEDTAVYYCARLPPGDMDYWGQGTQVTVSS"
  polyreactivity (PSR sort gate): "low polyreactivity"
- Sequence: "QGQLVETGGGLVQAGGSLRLSCAASGRIFDDNAMGWYRQAPGKERELVASITVSTGSTYYADSVKGRFTISRDNAKNTVYLKMNSLKPEDTAVYYCAKDNSLPDYDYWGQGSQVTVSS"
  polyreactivity (PSR sort gate): "low polyreactivity"
- Sequence: "QVQLVDSGGGLVQAGGSLRLSCAASGRTFTVYAMGWYRQAPGKERELVASISGSSGSTDYADSVKGRFTISRDNAKNTVYLQMNSLKPEDTAVYFCAKASSATRYVQLRQDYDYWGQGTQVTVSS"
  polyreactivity (PSR sort gate): "low polyreactivity"
- Sequence: "QVQLVESGGGLVQAGGSLRLSCAASGSIFEWYAMGWYRQAPGKERELVAAISSSGTSTYYADSVKGRFTISRDNAKNTVYLQMNSLKPEDTAVYYCNTDLSRLSQHDYWGQGTQVTVSS"
  polyreactivity (PSR sort gate): "low polyreactivity"
- Sequence: "QVQHVESGGGLVQAGGSLRLSCAASGRIFGPYAMGWYRQAPGKEREFVAVITYSSGSTYYADSVKWRFTISRDNAKNTVYLQMNSLKPEDTAVYYCAARLIRSYYYGRYDYWGQGTQVTVSS"
  polyreactivity (PSR sort gate): "high polyreactivity"
- Sequence: "QFQLVESGGGLVQAGGSLRLSCAASGRIFYSYAIGWYRQAPGKERELVAAINWSSVRTYYADSVKGRFTISRDNAKNTVYLQMNSLKPEDTAVYYWNAYSTEWGRYDYWGQGTQVTVSS"
  polyreactivity (PSR sort gate): "high polyreactivity"
- Sequence: "QVQLVESGGGLVQAGGSLRLSCAASGFTFIYNAMGWYRQAPGKERELVAAISRGASTNYADSVKGRFTISRDNAKNTVYLQMNSLKPEDTAVYYCAKRTTRLAPYDYWGQGTQVTVSS"
  polyreactivity (PSR sort gate): "high polyreactivity"
- Sequence: "QVQLVESGGGLVQAGGSLRLSCAASGFTLLWNAMGWYRQAPGKERELVAAINKSGGSTYADSVKGRFTISRDNAKNTVYLQMNSLKPEDTAVYYCAAEVDYSYWPEYARKYYYWGQGTQVTVSS"
  polyreactivity (PSR sort gate): "low polyreactivity"
- Sequence: "QVQLVESGGGLVQAGGSLRLSCAASGRIFWTYAMGWYRQAPGKERELVASITWSGGSTYYADSVKGRFTISRDNAKNTVYLQMNSLKPEDTAVYYCAADRHTYWYDYWGQGTQVTVSS"
  polyreactivity (PSR sort gate): "low polyreactivity"
- Sequence: "QVQLVESGGGLVQAGGSLRLSCAASGSTFYPYAMGWYRQAPGKERELVAAINLRADSTNYADSVKGRFTISRDNAKNTVYLQMNSLKPEDTAVYYCAARVSYRSGRRPLWAYNSWGQGTQVTVSS"
  polyreactivity (PSR sort gate): "high polyreactivity"
- Sequence: "QVQLVESGGGLVQAGGSLRLSCADSGSIVLVNAMGWSRQAPGKEREMVAAITYGGDSTYYADSVKGRFTISRDNAKNSVYFQINSLKREDTAVYYFAADAWVGWHDEYDYWGQGTQVTVSS"
  polyreactivity (PSR sort gate): "low polyreactivity"
- Sequence: "QVQLVESGGGLVQAGGSLRLSCAASGLTFPFYTMGRYRRAPGKERELVAAISRRGGSTYYADSVKGRFTISRDNAKNTVYLQMNSLKPEDTAVYYCAADKYSWYDYWGQGTQVTVSS"
  polyreactivity (PSR sort gate): "low polyreactivity"
- Sequence: "QVQLVESGGGLVQAGGSLRLSSAASGITFRFYSMGWYRQAPGKEREFVAAISTRGGRTYYADSVKGRFTISRDNAKNTVYLQMKSLKPEDTAVYYFAADFYYRTVATVTSVARYDYWGQGTQVTVSS"
  polyreactivity (PSR sort gate): "high polyreactivity"
- Sequence: "QVQLVESGGGLVQAGGSLRLSCAASGRIFYDYTMGWYRQAPVKERELVATITSGGNTNYADSVKGRFTISRDNAKNTVYLQMNSLKPEDTEVYYCNADFGYWWDGSRYDYWGQGTQVTVSA"
  polyreactivity (PSR sort gate): "low polyreactivity"
- Sequence: "QVQLVESGGGLVQAGGSLRLSCAASGSIFGRNAMGWYIQAPGKERELVAAINSGGSTNYADSVKGRFTISRDNAKNTVYLQMNSLKPEDTAVYFCAARTYSSGRYYGYVAFYYWGQGTQVTVSS"
  polyreactivity (PSR sort gate): "high polyreactivity"
